Tested on: THRa:RXRa (NR concentration 90 nM, RXRa partner concentration 90 nM)
Assay: PBM binding z-score (relative to random genomic background probes); higher = stronger binding; sequences stand for … in GC…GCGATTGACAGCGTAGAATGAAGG
Label not met if PBM binding z-score falls below 2; label met in every other case.

Examples from the recorded data:
{"Macromolecule sequence": "TGAATGAGGTTAAAGATCAGTGAACGTGGCGTCG", "Category label": "met"}
{"Macromolecule sequence": "GGAACGAGGGCAAAGTTGAAAGCATCTGTCGACG", "Category label": "not met"}
{"Macromolecule sequence": "CCTACTGGGCCCAAAAGGTCATTGATGCCGATAA", "Category label": "met"}

Quick check: does CCTACTGGGCCAAAAAGCTCATTGATGCCGATAA have PBM binding z-score greater than or equal to 2? not met

Quick check: does TCTTGTAGATCAGGAGGTTAAGAAAGCTGGCCAA have PBM binding z-score greater than or equal to 2? not met

Quick check: does CCAAGTTGGTCAGGAGGTCACACACCGGATATGA have PBM binding z-score greater than or equal to 2? met

Quick check: does TCAGACAGGTGAAGGTAACTCTGGTACGCAGTCG have PBM binding z-score greater than or equal to 2? not met

Quick check: does GATACAGGGTCAAGGGCAGAGTACGCGTATTGAT have PBM binding z-score greater than or equal to 2? met
